measuredOn: Tyrosine-protein phosphatase non-receptor type 1 (Homo sapiens, UniProt P18031)
Sequence (P18031 whole entry): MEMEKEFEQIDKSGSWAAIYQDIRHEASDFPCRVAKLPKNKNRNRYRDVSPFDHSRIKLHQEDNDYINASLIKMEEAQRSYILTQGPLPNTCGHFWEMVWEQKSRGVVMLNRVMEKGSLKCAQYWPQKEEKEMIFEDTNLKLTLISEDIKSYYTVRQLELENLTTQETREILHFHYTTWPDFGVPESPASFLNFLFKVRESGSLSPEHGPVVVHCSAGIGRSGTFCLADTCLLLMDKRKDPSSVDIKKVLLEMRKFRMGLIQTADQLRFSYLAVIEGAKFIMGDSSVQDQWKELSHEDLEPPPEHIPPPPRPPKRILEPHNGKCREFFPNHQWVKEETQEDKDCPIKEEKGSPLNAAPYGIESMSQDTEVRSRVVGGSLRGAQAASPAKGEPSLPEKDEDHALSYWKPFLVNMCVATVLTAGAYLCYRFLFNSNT
For each record, check the reported IC50: if it is below 9 µM write Y, else write N.

# input Given O=C(O)[C@@H](Cc1ccccc1)N1C(=O)/C(=C/c2cn(-c3ccccc3)nc2-c2ccc(Cl)cc2)SC1=S , is recorded IC50 strictly lower than 9 µM?
# output Y

More entries:
# input Does the reported IC50 of COc1cccc(-c2nn(-c3ccccc3)cc2/C=C2\SC(=S)N([C@H](Cc3ccccc3)C(=O)O)C2=O)c1 stay below 9 µM?
# output Y

# input API: query returns whether the molecule falls strictly under 9 µM in IC50. Query: COc1ccccc1-c1nn(-c2ccccc2)cc1/C=C1\SC(=S)N(CC(=O)O)C1=O
# output N

# input IC50 strictly < 9 µM for this molecule? O=C(O)[C@@H](Cc1ccccc1)N1C(=O)/C(=C/c2cn(-c3ccccc3)nc2-c2ccc(Cl)cc2Cl)SC1=S
# output Y

# input # strict comparison: is reported IC50 < 9 µM? input = Cc1ccc(-c2nn(-c3ccccc3)cc2/C=C2\SC(=S)N(CC(=O)O)C2=O)cc1
# output N

# input Determine if O=C(O)CN1C(=O)/C(=C/c2cn(-c3ccccc3)nc2-c2cccc(Br)c2)SC1=S shows IC50 strictly lower than 9 µM.
# output N

# input Hello, is IC50 of the following molecule strictly smaller than 9 µM? O=C(O)[C@@H](Cc1ccccc1)N1C(=O)/C(=C/c2cn(-c3ccccc3)nc2-c2ccc([N+](=O)[O-])cc2)SC1=S
# output Y

---

The following are reported pIC50 results, target or system M-phase inducer phosphatase 2 (Homo sapiens, UniProt P30305).
Remember, pIC50 is on a log scale: it is -log10 of the molar concentration.

The cases that follow already have their pIC50 on record.
pIC50 on M-phase inducer phosphatase 2 (Homo sapiens, UniProt P30305) for O=C(O)CCCN1C(=O)/C(=C/c2cn(-c3ccccc3)nc2-c2ccc(Cl)cc2Cl)SC1=S is 4.86

Item O=C(O)CN1C(=O)/C(=C/c2cn(-c3ccccc3)nc2-c2ccc3ccccc3c2)SC1=S ; assay system M-phase inducer phosphatase 2 (Homo sapiens, UniProt P30305); pIC50 reported as 4.95

Now examine the next entry.
Simply: O=C(O)CCN1C(=O)/C(=C/c2cn(-c3ccccc3)nc2-c2ccc(Cl)cc2Cl)SC1=S , M-phase inducer phosphatase 2 (Homo sapiens, UniProt P30305), pIC50 = 4.77

---

measuredOn: Receptor-type tyrosine-protein phosphatase F (Homo sapiens)
experimentalDetails: Inhibition of LAR (unknown origin) at 20 ug/ml using pNPP as substrate
Activity calls are given as the source filed them. No cut-off for these calls is given here.
readoutKind: inhibition

Completed entries (count: 6):
Note to self: inhibition recorded for O=C(O)CCCCN1C(=O)/C(=C/c2cn(-c3ccccc3)nc2-c2ccc(Cl)cc2Cl)SC1=S was inactive

For this compound ( O=C(O)CCCN1C(=O)/C(=C/c2cn(-c3ccccc3)nc2-c2ccc(Cl)cc2Cl)SC1=S ), measured inhibition is inactive

inhibition reading for O=C(O)[C@@H](Cc1ccccc1)N1C(=O)/C(=C/c2cn(-c3ccccc3)nc2-c2ccc(Cl)cc2Cl)SC1=S : inactive

Summary for this compound, O=C(O)CCCCCN1C(=O)/C(=C/c2cn(-c3ccccc3)nc2-c2ccc(Cl)cc2Cl)SC1=S : inhibition is inactive

The recorded inhibition for O=C(O)CCN1C(=O)/C(=C/c2cn(-c3ccccc3)nc2-c2ccc(Cl)cc2Cl)SC1=S is inactive

Kindly note the recorded inhibition for O=C(O)[C@@H](Cc1ccccc1)N1C(=O)/C(=C/c2cn(-c3ccccc3)nc2-c2ccc3ccccc3c2)SC1=S , which is inactive

# input for lookup
Reported inhibition for O=C(O)CN1C(=O)/C(=C/c2cn(-c3ccccc3)nc2-c2ccc3ccccc3c2)SC1=S was inactive

---

measuredOn: Tyrosine-protein phosphatase non-receptor type 2 (Homo sapiens, UniProt P17706)
Sequence (P17706 whole entry): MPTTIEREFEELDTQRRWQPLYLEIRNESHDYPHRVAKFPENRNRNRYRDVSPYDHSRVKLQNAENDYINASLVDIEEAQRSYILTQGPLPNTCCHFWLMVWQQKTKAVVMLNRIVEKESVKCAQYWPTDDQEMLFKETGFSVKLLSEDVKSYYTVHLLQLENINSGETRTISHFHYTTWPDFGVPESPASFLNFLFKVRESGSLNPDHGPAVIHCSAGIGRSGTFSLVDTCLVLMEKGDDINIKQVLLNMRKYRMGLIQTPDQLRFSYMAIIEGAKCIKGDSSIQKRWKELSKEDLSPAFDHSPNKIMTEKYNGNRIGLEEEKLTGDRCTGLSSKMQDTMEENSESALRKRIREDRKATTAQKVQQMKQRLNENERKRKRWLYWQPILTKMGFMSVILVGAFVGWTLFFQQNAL
readoutKind: IC50 (µM)
Number in µM, nothing else.

Given item O=C(O)CN1C(=O)/C(=C/c2cn(-c3ccccc3)nc2-c2ccc3ccccc3c2)SC1=S , the value recorded as its IC50 is 7.91

Continuing:
Form field IC50, entry O=C(O)CCCCCN1C(=O)/C(=C/c2cn(-c3ccccc3)nc2-c2ccc(Cl)cc2Cl)SC1=S : 5.63

Reported IC50 for O=C(O)CCCCN1C(=O)/C(=C/c2cn(-c3ccccc3)nc2-c2ccc(Cl)cc2Cl)SC1=S was 5.77
